Where do the numbers come from? From PubChem BioAssay (NCI).

Tested on: UO-31 renal
MEASUREMENT NOTES: NCI tumour cell line growth inhibition, 48 h
QUANTITY KIND: TGI

CCOC(=O)C1CSCCSC1 = > 100 µM
COc1ccccc1-c1cc(=O)c2c(C)cc(C)nc2[nH]1 = > 100 µM

Here is another compound to look at.
// `C=CCN1C(=O)CNC1=S` : TGI value = > 100 µM

###

Please respond with reported TGI for every item in the list.
Test system: TK-10 renal
MEASUREMENT NOTES: NCI tumour cell line growth inhibition, 48 h
*1 amine or outer side, *2 acyl side, *3 side chain or, on linkers, in order; H or OH if unused. Where a SMILES comes first, the peptide text is derived from it. [ ]: non-standard residue; d: D form. The star is where a group is joined. ξ: configuration not given here. X53 = CC(C)C[C@H](N[*:1])C1=N[C@H](C(=O)[*:2])CS1; Ile(3ξ) = CCC(C)[C@H](N)C(=O)O; Allyl(1,1-Me2) = C=CC(C)(C)*

COc1cc(C2CC(c3ccc(SC)cc3)=NN2C(C)=O)cc(OC)c1OC (stereo not drawn) = 78.1 µM
O=C(CCCBr)Nc1ccccc1C#C/C=C\C#Cc1ccccc1C(F)(F)F = > 50 µM
COC(=O)C1=C(OC(=O)/C(=C/c2ccccc2)c2ccc([N+](=O)[O-])cc2)C(C(=O)OC)[C@@]2(O)[C@@H](C(=O)OC)[C@H](C)C[C@@H]1[C@@H]2C(=O)OC (stereo partly drawn) = > 100 µM
COc1cc(C=C2c3ccccc3C(=O)c3ccccc32)ccc1OCCCCOc1cc2c(cc1OC)C(=O)N1CCCC1C=N2 (stereo not drawn) = 0.896 µM
CCOC(=O)C1=C(C#N)S(=O)(=O)c2c(oc(C)c2C)N1 = > 100 µM
OCc1cc2c([nH]c3ccccc32)c(C(O)CO)n1 (stereo not drawn) = > 100 µM

Record TGI per entry; entries follow.
1. CCCOc1ccc2sc(NC(=O)c3cc([N+](=O)[O-])cc([N+](=O)[O-])c3)nc2c1
2. C=CC(C)(C)OC[C@@H]1NC(=O)CNC(=O)[C@@H]2CCCN2C(=O)[C@H](C(C)CC)NC(=O)[C@@H]2CSC(=N2)[C@H](CC(C)C)NC1=O (stereo partly drawn) (cyclo(GS(Allyl(1,1-Me2))[X53][Ile(3ξ)]P))
3. Cc1ccc(S(=O)(=O)N/N=C2/C3CCC(C3)C2c2ccccc2)cc1 (stereo not drawn)
4. Cc1ccc(-c2cc(=O)c3cc4c(cc3[nH]2)OCO4)cc1

> 100 µM
> 100 µM
> 100 µM
> 60.6 µM

Record TGI per entry; entries follow.
1. c1ccc(COC2NCCN2Cc2ccccc2)cc1 (stereo not drawn)
2. COc1cc(Nc2ncc3c(C)nc(-c4cccc(C(F)(F)F)c4)n3n2)cc(OC)c1OC
3. COc1cc2c(cc1OCCCCCN1C(=O)c3cccc4cccc(c34)C1=O)N=C[C@@H]1CCCN1C2=O

1: > 100 µM; 2: 6.19 µM; 3: 2.78 µM

###

Please respond with reported TGI for every item in the list.
Test system: OVCAR-3 ovarian
MEASUREMENT NOTES: NCI tumour cell line growth inhibition, 48 h

Answered cases to consult:
CC1COC(c2cn[nH]c2C(N)=O)C1O (stereo not drawn) = > 100 µM
CCOC(=O)CCC(C(=O)OCC)n1nc2ccc(Nc3c(C)[n+]([O-])c4ccc(Cl)cc4[n+]3[O-])cc2n1 (stereo not drawn) = > 100 µM

Here is another compound to look at.
// CC(C)(C)[Si](C)(C)OC1(CCc2ccccc2OS(=O)(=O)C(F)(F)F)CCCC=C1COCc1ccccc1 (stereo not drawn) : TGI value = > 100 µM
